Target: Recombinant STAT3 protein (STAT3(G127-I722)) (Homo sapiens, UniProt P40763)
Construct: STAT3(G127-I722)
Sequence (P40763 127-722, species assumed): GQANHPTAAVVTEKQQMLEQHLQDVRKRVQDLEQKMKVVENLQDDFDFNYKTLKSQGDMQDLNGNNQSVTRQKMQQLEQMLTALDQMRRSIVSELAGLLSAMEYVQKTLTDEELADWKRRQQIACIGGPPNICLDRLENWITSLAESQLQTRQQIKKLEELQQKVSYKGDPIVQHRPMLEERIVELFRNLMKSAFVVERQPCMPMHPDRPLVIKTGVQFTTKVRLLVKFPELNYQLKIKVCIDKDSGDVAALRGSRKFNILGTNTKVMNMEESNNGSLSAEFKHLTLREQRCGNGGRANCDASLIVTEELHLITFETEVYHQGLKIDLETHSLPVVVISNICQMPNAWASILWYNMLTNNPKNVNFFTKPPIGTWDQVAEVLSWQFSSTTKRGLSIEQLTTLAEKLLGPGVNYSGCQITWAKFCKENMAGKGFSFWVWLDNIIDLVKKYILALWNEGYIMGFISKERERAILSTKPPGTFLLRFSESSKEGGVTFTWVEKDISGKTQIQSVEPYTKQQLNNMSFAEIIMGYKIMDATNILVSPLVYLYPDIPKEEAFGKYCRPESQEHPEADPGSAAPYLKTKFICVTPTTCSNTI
Experiment: STAT3 Fluorescence Polarization (FP) Assay
Details: STAT3(G127-I722) 25 nM, probe 5-FAM-GpYLPQTV-NH2 2 nM, 45-minute incubation
endpoint.name: IC50

Task: Given the molecule CC(=O)N1CC2C1CCN2C(=O)[C@@H]1CC[C@@H]2C[C@H]3C[C@H]3C[C@H](NC(=O)c3cc4cc(CP(=O)(O)O)ccc4s3)C(=O)N21 (some centres unmarked) , what is its reported IC50?
Result: 1000 to 10000 nM

Task: Which IC50 is listed for O=C(N[C@H]1C[C@H]2C[C@H]2C[C@H]2CC[C@@H](C(=O)N3CC(c4[nH]nc5c4CCC5)C3)N2C1=O)c1cc2cc(C(F)(F)P(=O)(O)O)ccc2s1 ?
Result: < 100 nM

Task: Value lookup for IC50; key = O=C(N[C@H]1C[C@@H]2C[C@@H]2C[C@H]2CC[C@@H](C(=O)N[C@@H]3CCN(c4cccnn4)C3)N2C1=O)c1cc2cc(C(F)(F)P(=O)(O)O)ccc2s1
Result: < 100 nM

Task: Look up IC50: Cc1cccc(C2CN(C(=O)[C@@H]3CC[C@@H]4C[C@@H]5C[C@@H]5C[C@H](NC(=O)c5cc6cc([C@@H](F)P(=O)(O)O)ccc6s5)C(=O)N43)C2)n1 (single isomer, unassigned)
Result: < 100 nM

Task: State the recorded IC50 for this entry: CC(C)C1(c2ccccc2)CN(C(=O)[C@@H]2CC[C@@H]3C[C@@H]4C[C@@H]4C[C@H](NC(=O)c4cc5cc(C(F)(F)P(=O)(O)O)ccc5s4)C(=O)N32)C1
Result: < 100 nM

Task: Using the record for O=C(N[C@H]1C[C@@H]2C[C@@H]2C[C@H]2CC[C@@H](C(=O)N3CCN(C4CCOCC4)CC3)N2C1=O)c1cc2cc(C(F)(F)P(=O)(O)O)ccc2s1 , report its IC50.
Result: 100 to 1000 nM

Task: Find the recorded IC50 belonging to Cn1cc(OC2CN(C(=O)[C@@H]3CC[C@@H]4C[C@H]5C[C@H]5C[C@H](NC(=O)c5cc6cc(CP(=O)(O)O)ccc6s5)C(=O)N43)C2)cn1 and report it.
Result: 1000 to 10000 nM

----------
Attribute: pIC50
Biological target: pSTAT6 (pY641-STAT6) (Homo sapiens)
Sequence (P42226 whole entry): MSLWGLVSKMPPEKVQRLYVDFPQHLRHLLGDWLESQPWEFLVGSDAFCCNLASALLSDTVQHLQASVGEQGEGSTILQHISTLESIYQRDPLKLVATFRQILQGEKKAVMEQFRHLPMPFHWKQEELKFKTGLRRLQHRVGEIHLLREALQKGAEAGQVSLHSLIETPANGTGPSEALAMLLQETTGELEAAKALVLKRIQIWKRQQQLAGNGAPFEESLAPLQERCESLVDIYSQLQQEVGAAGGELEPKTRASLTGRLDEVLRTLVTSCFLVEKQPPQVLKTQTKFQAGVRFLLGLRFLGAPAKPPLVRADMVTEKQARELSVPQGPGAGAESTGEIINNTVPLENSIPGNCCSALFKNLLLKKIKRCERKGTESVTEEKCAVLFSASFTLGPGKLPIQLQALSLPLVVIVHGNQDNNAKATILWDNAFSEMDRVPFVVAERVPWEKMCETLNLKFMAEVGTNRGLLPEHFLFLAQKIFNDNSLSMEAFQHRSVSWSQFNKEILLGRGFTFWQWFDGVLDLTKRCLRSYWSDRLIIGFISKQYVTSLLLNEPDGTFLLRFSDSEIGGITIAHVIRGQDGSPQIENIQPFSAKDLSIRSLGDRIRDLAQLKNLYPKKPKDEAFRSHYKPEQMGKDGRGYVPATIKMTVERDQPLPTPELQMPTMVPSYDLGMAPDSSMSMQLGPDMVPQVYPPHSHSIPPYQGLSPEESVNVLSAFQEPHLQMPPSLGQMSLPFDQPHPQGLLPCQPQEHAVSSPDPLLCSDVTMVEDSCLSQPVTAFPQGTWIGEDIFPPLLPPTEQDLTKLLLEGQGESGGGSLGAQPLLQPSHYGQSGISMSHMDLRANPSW
Assay: MSD-pSTAT-PBMC Assay (pSTAT6, IL-4 stimulated)
Settings: compound 3 hrs, then 1 ng/mL IL-4 for 10 min
pIC50: −log10 of the molar value.

Example cases with answers are listed next.
Task: Give the measured pIC50 of CC(C)(C)C(=O)OCOP(=O)(OCOC(=O)C(C)(C)C)C(F)(F)c1ccc2sc(C(=O)N[C@H]3C[C@@H]4C[C@@H]4C[C@H]4CC[C@@H](C(=O)N[C@@H]5CCN(c6cccnc6)C5)N4C3=O)cc2c1 [Compound 212] .
Result: < 5.52

Task: Recorded pIC50 for COCCOC(=O)OCOP(=O)(OCOC(=O)OCCOC)C(F)(F)c1ccc2sc(C(=O)N[C@H]3C[C@@H]4C[C@@H]4C[C@H]4CC[C@@H](C(=O)N5CC(C(=O)N6CCOCC6)C5)N4C3=O)cc2c1 [Compound 172] , please?
Result: < 5.52

Task: Consider the compound CC(C)(C)C(=O)SCCOP(=O)(Oc1ccccc1)C(F)(F)c1ccc2sc(C(=O)N[C@H]3C[C@H]4C[C@H]4C[C@H]4CC[C@@H](C(=O)N5CC(n6ccnc6)C5)N4C3=O)cc2c1 (stereo partly drawn) [Compound 195] and give its measured pIC50.
Result: < 5.52

Further cases:
Task: Quick one: pIC50 for CCCCC(=O)OCOP(=O)(OCOC(=O)CCCC)C(F)(F)c1ccc2sc(C(=O)N[C@H]3C[C@@H]4C[C@@H]4C[C@H]4CC[C@@H](C(=O)N5CC(C(=O)N6CCOCC6)C5)N4C3=O)cc2c1 [Example 4] ?
Result: < 5.52

----------
Target: Recombinant STAT3 protein (STAT3(G127-I722)) (Homo sapiens, UniProt P40763)
Construct: STAT3(G127-I722)
Assay: STAT3 Fluorescence Polarization (FP) Assay
Conditions: STAT3(G127-I722) 25 nM, probe 5-FAM-GpYLPQTV-NH2 2 nM, 45-minute incubation
endpoint.name: IC50

Worked cases, answers included:
Task: So what's the measured IC50 for this one? O=C(N[C@H]1C[C@H]2C[C@H]2C[C@H]2CC[C@@H](C(=O)NCc3c[nH]c4ncccc34)N2C1=O)c1cc2cc(C(F)(F)P(=O)(O)O)ccc2s1
Result: < 100 nM

Task: Data request, read-out IC50, for O=C(N[C@H]1C[C@@H]2C[C@@H]2C[C@H]2CC[C@@H](C(=O)N3CC4C3CCN4c3cccnc3)N2C1=O)c1cc2cc(CP(=O)(O)O)ccc2s1 (stereo partly drawn)
Result: 100 to 1000 nM

Next, consider the following compound.
Task: Quick one: IC50 of O=C(N[C@H]1C[C@@H]2C[C@@H]2C[C@H]2CC[C@@H](C(=O)N3CC4C3CCN4c3cccnc3)N2C1=O)c1cc2cc(C(F)(F)P(=O)(O)O)ccc2s1 (stereo partly drawn) ?
Result: < 100 nM

----------
Biological target: pSTAT3 (pY705-STAT3) (Homo sapiens)
Construct: host or cells: cryopreserved PBMC
Sequence (P40763 whole entry): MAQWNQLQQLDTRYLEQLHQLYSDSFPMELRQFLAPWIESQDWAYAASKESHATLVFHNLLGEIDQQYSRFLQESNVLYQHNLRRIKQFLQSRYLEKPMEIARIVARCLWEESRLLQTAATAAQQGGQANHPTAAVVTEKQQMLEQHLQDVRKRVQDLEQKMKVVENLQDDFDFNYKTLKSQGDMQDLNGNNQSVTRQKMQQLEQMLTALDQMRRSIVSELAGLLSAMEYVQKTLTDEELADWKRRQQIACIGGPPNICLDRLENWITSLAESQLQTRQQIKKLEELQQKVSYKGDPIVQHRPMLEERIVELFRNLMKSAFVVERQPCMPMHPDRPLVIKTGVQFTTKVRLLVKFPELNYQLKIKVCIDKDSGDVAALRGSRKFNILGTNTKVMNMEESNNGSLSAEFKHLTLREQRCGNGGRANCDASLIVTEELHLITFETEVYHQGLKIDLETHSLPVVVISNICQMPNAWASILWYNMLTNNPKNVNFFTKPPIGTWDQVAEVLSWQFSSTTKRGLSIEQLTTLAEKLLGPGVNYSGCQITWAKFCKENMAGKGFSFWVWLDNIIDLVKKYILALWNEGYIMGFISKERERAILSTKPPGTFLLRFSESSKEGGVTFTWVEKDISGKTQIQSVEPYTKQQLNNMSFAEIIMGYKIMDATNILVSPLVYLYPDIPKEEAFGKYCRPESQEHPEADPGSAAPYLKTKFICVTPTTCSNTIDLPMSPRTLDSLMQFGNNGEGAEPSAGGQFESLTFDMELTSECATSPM
Assay: MSD-pSTAT-PBMC Assay (pSTAT3, IL-6 stimulated)
Type: cell-based
Details: PBMC, compound 3 hrs, then 10 ng/mL IL-6 for 10 min; MSD pY705-STAT3; read-out: pSTAT3
Procedure: Cryopreserved Peripheral Blood Mononuclear Cells (PBMC) are from AllCells. Recombinant Human IL-4 and IL-6 are from Peprotech. […] Cryopreserved PBMCs were thawed out and allowed to recover overnight in IMDM+10% heat-inactivated FBS prior to plating 50,000 (STAT3) or 25,000 (STAT6) cells per well in 96-well U-bottom tissue culture plates. […] Assay plates were then washed and 150 μL of 1× Read Buffer-T (MSD) was added to each well prior to reading on an SQ120 MSD Plate Reader. […]
pIC50: −log10 of the molar value.
List of pIC50 values.

Solved cases below.
Task: What does the data say about its pIC50? Entry: CCCOC(=O)[C@H](C)NP(=O)(Oc1ccccc1)C(F)c1ccc2sc(C(=O)N[C@H]3C[C@@H]4C[C@@H]4C[C@H]4CC[C@@H](C(=O)N5CC(CS(C)(=O)=O)C5)N4C3=O)cc2c1 (some centres unmarked)
Result: 6.00 to 7.00

Task: Form field: reported pIC50 of CCCC(=O)SCCOP(=O)(Cc1ccc2sc(C(=O)N[C@H]3C[C@@H]4C[C@@H]4C[C@H]4CC[C@@H](C(=O)N5CC(C(=O)N6CCOCC6)C5)N4C3=O)cc2c1)OCCSC(=O)CCC
Result: 5.52 to 6.00

Others:
Task: // pIC50 lookup, key: CC(C)(C)C(=O)OCOP(=O)(Cc1ccc2sc(C(=O)N[C@H]3C[C@@H]4C[C@@H]4C[C@H]4CC[C@@H](C(=O)N5CC(C(=O)N6CCOCC6)C5)N4C3=O)cc2c1)OCOC(=O)C(C)(C)C
Result: > 7.00

Task: Please give the measured pIC50 for this compound: CC(C)OC(=O)OCOP(=O)(OCOC(=O)OC(C)C)C(F)(F)c1ccc2sc(C(=O)N[C@H]3C[C@H]4C[C@H]4C[C@H]4CC[C@@H](C(=O)N5CC(c6cccnc6)C5)N4C3=O)cc2c1
Result: > 7.00

Task: Name the recorded pIC50 for CC(C)(C)C(=O)SCCOP(=O)(OCCSC(=O)C(C)(C)C)C(F)(F)c1ccc2sc(C(=O)N[C@H]3C[C@@H]4C[C@@H]4C[C@H]4CC[C@@H](C(=O)N5CC(n6ccnc6)C5)N4C3=O)cc2c1 .
Result: > 7.00

Task: Returns the measured pIC50 for the input compound. Input: CCOC(=O)[C@H](C)NP(=O)(OCC(F)(F)F)C(F)c1ccc2sc(C(=O)N[C@H]3C[C@@H]4C[C@@H]4C[C@H]4CC[C@@H](C(=O)N5CC(c6cnccc6C)C5)N4C3=O)cc2c1 (some centres unmarked)
Result: > 7.00

Task: Entry CC(C)(C)C(=O)OCOP(=O)(OCOC(=O)C(C)(C)C)[C@@H](F)c1ccc2sc(C(=O)N[C@H]3C[C@@H]4C[C@@H]4C[C@H]4CC[C@@H](C(=O)N5CC(C(=O)N6CCOCC6)C5)N4C3=O)cc2c1 (single isomer, unassigned) [Compound 182] : reported pIC50 = ?
Result: > 7.00

Task: Would you kindly share the measured pIC50 for CC(C)(C)C(=O)OCOP(=O)(OCOC(=O)C(C)(C)C)C(F)(F)c1ccc2sc(C(=O)N[C@H]3C[C@@H]4C[C@@H]4C[C@H]4CC[C@@H](C(=O)N5C[C@@H](C#N)[C@H](c6ccccc6)C5)N4C3=O)cc2c1 (relative stereo) ?
Result: > 7.00

Task: Dear colleague, I am looking for the recorded pIC50 of the following compound: CC(C)(C)C(=O)OCOP(=O)(OCOC(=O)C(C)(C)C)C(F)(F)c1ccc2sc(C(=O)N[C@H]3C[C@H]4C[C@H]4C[C@H]4CC[C@@H](C(=O)NC5CN(C(=O)CCC(F)(F)F)C5)N4C3=O)cc2c1
Result: > 7.00

Task: Query (compound): CCOC(=O)[C@H](C)NC(=O)OCOP(=O)(Cc1ccc2sc(C(=O)N[C@H]3C[C@@H]4C[C@@H]4C[C@H]4CC[C@@H](C(=O)N5CC(C(=O)N6CCOCC6)C5)N4C3=O)cc2c1)OCOC(=O)N[C@@H](C)C(=O)OCC ; field requested: pIC50
Result: < 5.52

Task: Reported pIC50, compound CCCOC(=O)[C@H](C)NP(=O)(Oc1ccccc1)C(F)c1ccc2sc(C(=O)N[C@H]3C[C@H]4C[C@H]4C[C@H]4CC[C@@H](C(=O)N5CC(c6cnccc6F)C5)N4C3=O)cc2c1 (some centres unmarked) : ____
Result: > 7.00

Task: What does the record list as pIC50 for CC(C)OC(=O)[C@H](Cc1ccccc1)OP(=O)(Oc1ccccc1)C(F)(F)c1ccc2sc(C(=O)N[C@H]3C[C@@H]4C[C@@H]4C[C@H]4CC[C@@H](C(=O)N5CC(C(=O)N6CCOCC6)C5)N4C3=O)cc2c1 (some centres unmarked) ?
Result: < 5.52

Task: Fill in: pIC50 of CC(C)OC(=O)[C@H](C)NP(=O)(Oc1ccccc1)C(F)(F)c1ccc2sc(C(=O)N[C@H]3C[C@@H]4C[C@@H]4C[C@H]4CC[C@@H](C(=O)N5CC(C(=O)N6CCOCC6)C5)N4C3=O)cc2c1 (some centres unmarked) is ___
Result: < 5.52

Task: Item CCOC(=O)[C@H](C)NP(=O)(Oc1ccccc1)C(F)(F)c1ccc2sc(C(=O)N[C@H]3C[C@@H]4C[C@@H]4C[C@H]4CC[C@@H](C(=O)N5CC(C(=O)N6CCOCC6)C5)N4C3=O)cc2c1 (some centres unmarked) has what recorded pIC50?
Result: < 5.52

Task: If you can, please state the reported pIC50 value of CC(C)C[C@H](NP(=O)(Oc1ccccc1)C(F)(F)c1ccc2sc(C(=O)N[C@H]3C[C@@H]4C[C@@H]4C[C@H]4CC[C@@H](C(=O)N5CC(C(=O)N6CCOCC6)C5)N4C3=O)cc2c1)C(=O)OCc1ccccc1 (some centres unmarked) .
Result: 5.52 to 6.00

Task: Need pIC50, item CCCOC(=O)[C@H](C)N[P@@](=O)(Oc1ccccc1)[C@H](F)c1ccc2sc(C(=O)N[C@H]3C[C@H]4C[C@H]4C[C@H]4CC[C@@H](C(=O)N5CC(c6cnccc6N(C)C)C5)N4C3=O)cc2c1 [Compound 399]
Result: > 7.00

Task: Look at this compound and give its reported pIC50. CC(C)CC(=O)SCCOP(=O)(Oc1ccccc1)C(F)(F)c1ccc2sc(C(=O)N[C@H]3C[C@H]4C[C@H]4C[C@H]4CC[C@@H](C(=O)N5CC(n6ccnc6)C5)N4C3=O)cc2c1 (some centres unmarked)
Result: > 7.00

Origin of values: patent US20250215030A1
